Just for reference, patent US20260015350A1 is where these values come from.

- measured on: KRas^G12S (Homo sapiens, UniProt P01116, G12S)
- Construct: Biotinylated KRas (corresponding to amino acids 1-169, produced at Accelegan Inc.); biotin (biotinylated); purchased Accelegan Inc
- Sequence (P01116 1-169 isoform P01116-2 G12S): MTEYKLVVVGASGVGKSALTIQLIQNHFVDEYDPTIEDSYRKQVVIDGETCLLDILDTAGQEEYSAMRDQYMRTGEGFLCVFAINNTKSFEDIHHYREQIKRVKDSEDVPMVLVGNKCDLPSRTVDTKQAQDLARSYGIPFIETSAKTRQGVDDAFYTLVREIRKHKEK
- experiment description: KRas binding assay (TR-FRET tracer displacement), KRas G12S
- experimental conditions: TR-FRET tracer displacement, KRas G12S
assay metric: IC50 (nM)

Known IC50 results, listed for orientation:
CN(C)C(=O)c1cc2n(n1)CCCN(c1nc(OC[C@@]34CCCN3C[C@H](F)C4)nc3c(F)c(-c4c5ccccc5cc5[nH]ncc45)ncc13)C2 [Example 761] ... 33
Cc1cc2[nH]nnc2c(-c2ncc3c(N4C[C@@H]5C[C@H](C4)[C@H](O)C5)nc(OCC45CCCN4CCC5)nc3c2F)c1C [Example 832] ... 2940
Cc1cc2[nH]nnc2c(-c2ncc3c(N4CC5C(=O)NC(=O)C5C4)nc(OCC45CCCN4CCC5)nc3c2F)c1C (stereo not shown) [Example 833] ... 1860

[a] O[C@@H]1C[C@H]2C[C@@H]1CN(c1nc(OC[C@@]34CCCN3C[C@H](F)C4)nc3c(F)c(-c4cccc5ccccc45)ncc13)C2 [Example 724]
[b] Cc1cc2sncc2c(-c2ncc3c(N4CCC[C@@](C)(O)C4)nc(OCC45CCCN4CCC5)nc3c2F)c1C [Example 820]
[c] C[C@@]1(O)CCCN(c2nc(OCC34CCCN3CCC4)nc3c(F)c(-c4ccc(F)c5sc(N)nc45)ncc23)C1 [Example 735]
Returns the items ordered by IC50, from maximum to minimum. As an answer, provide the labels arranged in the order called for.
c, b, a

[I] Cc1cc2[nH]nnc2c(-c2ncc3c(N4CCCn5nc(C(=O)N(C)C)cc5C4)nc(OCC45CCCN4CCC5)nc3c2F)c1C [Example 839]
[II] Cc1cc2[nH]ncc2c(-c2ncc3c(N4CCCC5(CNC(=O)N5)C4)nc(OCC45CCCN4CCC5)nc3c2F)c1C (stereo not shown) [Example 729]
Lower value of IC50 belongs to which: I or II ? Refer to your chosen item by its label in the answer.
II

----------
- measured on: KRas^G13D (Homo sapiens, UniProt P01116, G13D)
- Construct: Biotinylated KRas (corresponding to amino acids 1-169, produced at Accelegan Inc.); biotin (biotinylated); purchased Accelegan Inc
- Sequence (P01116 1-169 isoform P01116-2 G13D): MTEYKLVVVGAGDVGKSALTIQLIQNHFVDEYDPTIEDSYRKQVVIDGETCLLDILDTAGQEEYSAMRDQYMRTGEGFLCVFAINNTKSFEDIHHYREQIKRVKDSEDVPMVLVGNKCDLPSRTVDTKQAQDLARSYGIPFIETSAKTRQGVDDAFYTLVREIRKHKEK
- experiment description: KRas binding assay (TR-FRET tracer displacement), KRas G13D
- experimental conditions: TR-FRET tracer displacement, KRas G13D
assay metric: IC50 (nM)

Some molecules with known IC50 results, for comparison:
Cc1cc2[nH]ncc2c(-c2ncc3c(N4CCCC5(CNC(=O)N5)C4)nc(OCC45CCCN4CCC5)nc3c2F)c1C (stereo not shown) ... 46
Cc1cc2[nH]nnc2c(-c2ncc3c(N4CCCC5(C4)NC(=O)NC5=O)nc(OCC45CCCN4CCC5)nc3c2F)c1C (stereo not shown) ... 1270
Cc1cc2[nH]nnc2c(-c2ncc3c(N4C[C@@H]5C[C@H](C4)[C@H](O)C5)nc(OCC45CCCN4CCC5)nc3c2F)c1C ... 3880
Oc1cc(-c2ncc3c(N4C[C@@H]5C[C@H](C4)[C@H](O)C5)nc(OC[C@@]45CCCN4C[C@H](F)C5)nc3c2F)c2ccccc2c1C(F)(F)F ... 2550
Cc1cc2[nH]nnc2c(-c2ncc3c(N4CCC[C@@](C)(O)C4)nc(OC[C@@]45CCCN4C[C@H](F)C5)nc3c2F)c1C ... 146

[1] Cc1cc2c(c(-c3ncc4c(N5CCC[C@@](C)(O)C5)nc(OCC56CCCN5CCC6)nc4c3F)c1C)CC(=O)N2
[2] Cc1c(O)cc(-c2ncc3c(N4C[C@@H]5C[C@H](C4)[C@H](O)C5)nc(OC[C@@]45CCCN4C[C@H](F)C5)nc3c2F)c2ccccc12
[3] Oc1cc(-c2ncc3c(N4C[C@@H]5C[C@H](C4)[C@H](O)C5)nc(OC[C@@]45CCCN4C[C@H](F)C5)nc3c2F)c2ccccc2c1F
Let's sort these by IC50, smallest first. Go ahead? Write out the labels following the order that was asked for.
3, 1, 2

[A] Cc1cc2[nH]nnc2c(-c2ncc3c(N4CCOC[C@@](C)(O)C4)nc(OCC45CCCN4CCC5)nc3c2F)c1C
[B] Oc1cc2ccccc2c(-c2ncc3c(N4C[C@@H]5C[C@H](C4)[C@H](O)C5)nc(OC[C@@]45CCCN4C[C@H](F)C5)nc3c2F)c1Cl
[C] Cc1cc2[nH]nnc2c(-c2ncc3c(N4CC5C(=O)NC(=O)C5C4)nc(OCC45CCCN4CCC5)nc3c2F)c1C (stereo not shown)
Order the 3 molecules from highest to lowest IC50. Please list the labels in the order you were asked to rank them.
A, C, B

[A] CCc1cccc2cc3[nH]ncc3c(-c3ncc4c(N5CCCC6(CC(=O)N6)C5)nc(OC[C@@]56CCCN5C[C@H](F)C6)nc4c3F)c12 (stereo partly shown)
[B] Cc1cc2[nH]c(=O)[nH]c2c(-c2ncc3c(N4CCC[C@@](C)(O)C4)nc(OCC45CCCN4CCC5)nc3c2F)c1C
[C] O=S1(=O)NCC2(CCCN(c3nc(OCC45CCCN4CCC5)nc4c(F)c(-c5cc(O)cc(Cl)c5C5CC5)ncc34)C2)N1 (stereo not shown)
[D] O=C1NC(=O)C2(CCCN(c3nc(OC[C@@]45CCCN4C[C@H](F)C5)nc4c(F)c(-c5c6ccccc6cc6[nH]ncc56)ncc34)C2)N1 (stereo partly shown)
[E] Cc1cccc2c(-c3ncc4c(N5C[C@@H]6C[C@H](C5)[C@H](O)C6)nc(OC[C@@]56CCCN5C[C@H](F)C6)nc4c3F)cc(O)cc12
Arrange by IC50, high to low. Write the labels, ordered according to the request.
B, E, A, D, C

[P] Cc1cc2[nH]nnc2c(-c2ncc3c(N4CCCC5(CNS(=O)(=O)N5)C4)nc(OCC45CCCN4CCC5)nc3c2F)c1C (stereo not shown)
[Q] C#Cc1c(F)ccc2cc(O)cc(-c3ncc4c(N5CCC[C@@](C)(O)C5)nc(OC[C@@]56CCCN5[C@@H](CO)CC6)nc4c3F)c12
Which of the two gives a bigger number for IC50: P or Q ? # answer = label of selected item
P

[I] Oc1cc(Cl)c(C2CC2)c(-c2ncc3c(N4C[C@H]5C[C@@H](C4)[C@H](O)C5)nc(OCC45CCCN4CCC5)nc3c2F)c1
[II] Cc1cc2[nH]ccc2c(-c2ncc3c(N4CCC[C@@](C)(O)C4)nc(OCC45CCCN4CCC5)nc3c2F)c1C
Which entry shows the lesser value of IC50 here, I or II ? In your reply, give the label of the chosen option.
I

----------
- measured on: KRas^G12D (Homo sapiens, UniProt P01116, G12D)
- Construct: Biotinylated KRas (corresponding to amino acids 1-169, produced at Accelegan Inc.); biotin (biotinylated); purchased Accelegan Inc
- Sequence (P01116 1-169 isoform P01116-2 G12D): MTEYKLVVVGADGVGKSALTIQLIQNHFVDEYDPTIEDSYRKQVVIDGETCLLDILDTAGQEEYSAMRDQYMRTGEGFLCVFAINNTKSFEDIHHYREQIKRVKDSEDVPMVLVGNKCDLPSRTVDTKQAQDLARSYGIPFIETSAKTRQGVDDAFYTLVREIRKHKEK
- experiment description: KRas binding assay (TR-FRET tracer displacement), KRas G12D
assay metric: IC50 (nM)

[1] CCc1c(F)ccc2cc(O)cc(-c3ncc4c(NC[C@@H]5C[C@H](CO)NC5=O)nc(OC[C@@]56CCCN5C[C@H](F)C6)nc4c3F)c12
[2] CCc1c(F)ccc2cc(O)cc(-c3ncc4c(N5CCC[C@@](C)(O)C5)nc(OCC5(CN(C)C)CC5CC)nc4c3F)c12 (stereo partly drawn)
[3] CCc1c(F)ccc2cc(O)cc(-c3ncc4c(N5CCCC(C6CCNC6=O)C5)nc(OC[C@@]56CCCN5C[C@H](F)C6)nc4c3F)c12 (single isomer, unassigned) [Example 617]
Rank by decreasing IC50 the items listed here. Please respond with the labels ordered as the question requires.
1, 3, 2

[I] Oc1cc(Cl)c(C2CC2)c(-c2ncc3c(N4CCC[C@]5(C4)C[C@@H](O)C5)nc(OCC45CCCN4CCC5)nc3c2F)c1
[II] CCc1c(F)ccc2cc(O)cc(-c3ncc4c(NCC5CC(CO)NC5=O)nc(OC[C@@]56CCCN5C[C@H](F)C6)nc4c3F)c12 (stereo partly drawn)
Short answer wanted: higher IC50, I or II ? Mark your selection by writing its label.
II

[P] CCc1c(F)ccc2cc(O)cc(-c3ncc4c(N5CCCC6(C[C@H](O)[C@H](O)CO6)C5)nc(OC[C@@]56CCCN5C[C@H](F)C6)nc4c3F)c12 (stereo partly drawn)
[Q] CCc1c(F)ccc2cc(O)cc(-c3ncc4c(N5CCC[C@@](C)(O)C5)nc(OC[C@@]56CCCN5[C@@H](CF)CC6)nc4c3F)c12
Choose between P and Q : whose measured IC50 value is numerically larger? Returns: label corresponding to the selected item.
P

[I] CCc1c(F)ccc2cc(O)cc(-c3ncc4c(N5Cc6c(C(=O)N(C)C)nn(C)c6C5)nc(OC[C@@]56CCCN5C[C@H](F)C6)nc4c3F)c12
[II] CCc1c(F)ccc2cc(O)cc(-c3ncc4c(N5CC6CCC(CC(=O)N(C)C)(C6)C5)nc(OC[C@@]56CCCN5C[C@H](F)C6)nc4c3F)c12 (stereo partly drawn)
Could you please tell me which of these two has the higher IC50: I or II ? Choose, then provide that item's label.
I
(I: 527 nM, II: 11 nM)

[a] CCc1c(F)ccc2cc(O)cc(-c3ncc4c(N5CCC(C#N)CC5)nc(OC[C@@]56CCCN5C[C@H](F)C6)nc4c3F)c12
[b] CCc1c(F)ccc2cc(O)cc(-c3ncc4c(N5CC6C(=O)NC(=O)C6C5C)nc(OC[C@@]56CCCN5C[C@H](F)C6)nc4c3F)c12 (stereo partly drawn)
[c] Cc1ccc2c(-c3ncc4c(N5C[C@@H]6C[C@H](C5)[C@H](O)C6)nc(OC[C@@]56CCCN5C[C@H](F)C6)nc4c3F)cc(O)cc2c1
[d] CCc1c(F)ccc2cc(O)cc(-c3ncc4c(N5CCCC(C6(O)CCC6)C5)nc(OC[C@@]56CCCN5C[C@H](F)C6)nc4c3F)c12 (stereo partly drawn)
[e] CCc1c(F)ccc2cc(O)cc(-c3ncc4c(CCc5ccnn5C)nc(OC[C@@]56CCCN5C[C@H](F)C6)nc4c3F)c12
Please rank these compounds by IC50 in descending order. Please reply with the labels ordered as requested. Many thanks.
e, c, d, a, b

[1] O=C1NC(=O)[C@]2(CCCN(c3nc(OCC45CCCN4CCC5)nc4c(F)c(-c5c(C6CC6)c(Cl)cc6[nH]ncc56)ncc34)C2)N1
[2] O=S1(=O)NCC2(CCCN(c3nc(OCC45CCCN4CCC5)nc4c(F)c(-c5cccc6cccc(CO)c56)ncc34)C2)N1 (stereo not drawn)
Input pair: 1 , 2 . Output: entry with lower IC50. Choose, then provide that item's label.
1
(1: 2 nM, 2: 66 nM)

[A] CCc1c(F)ccc2cc(O)cc(-c3ncc4c(N5CCC[C@@](C)(O)C5)nc(OC[C@]56CCCN5[C@H](CF)CC6)nc4c3F)c12
[B] CCc1c(F)ccc2cc(O)cc(-c3ncc4c(N5C[C@@H]6[C@@H](CC#N)NC(=O)[C@@H]6C5)nc(OC[C@@]56CCCN5C[C@H](F)C6)nc4c3F)c12
// which entry has the larger IC50 value, A or B ? Your choice should be expressed through its label.
B
(B: 26 nM, A: 2 nM)
